meta.source: the RNAGym collection of RNA variant scans (doi:10.1093/molbev/msab373)

B1: Azoarcus group I ribozyme (parent)
chain: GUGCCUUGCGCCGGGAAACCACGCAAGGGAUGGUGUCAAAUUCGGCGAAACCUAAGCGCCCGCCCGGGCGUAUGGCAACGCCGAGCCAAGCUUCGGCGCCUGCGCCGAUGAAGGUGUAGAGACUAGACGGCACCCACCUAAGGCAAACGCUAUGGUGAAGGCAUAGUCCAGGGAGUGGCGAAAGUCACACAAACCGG

Variants of: B1
Assay: reverse-splicing fitness (ratio to wild type); higher = more active; in vitro selection; Mg2+ level not given
Categorized via reverse-splicing fitness: Low (below 0.006), Mid (0.006 to below 0.01), High (0.01 or more)

- A111C A120C A145U C150U C169G: Mid
- C82G A111U A145C C150A U176A: High
- C82G A111C A145G C150G C169A: Mid
- C82U A120U A145G C150A C169G: Low
- C82A A145C C169A U176C: Mid

Q: # bin lookup: classify C82U A120C C150G by its reverse-splicing fitness
Ans: High

Q: Lab note: sort C82A A111C A120C A145G C169U U176G into the matching reverse-splicing fitness band.
Ans: Mid

Q: Band for C82U A111U A120C A145U C150G ?
Ans: Mid

Q: Into which category would you place C82U A111C A120U A145C U176G ?
Ans: Low
